- Test system: Staphylococcus aureus ATCC 6538P

{"compound": "CCCO[C@]1(C)C[C@@H](C)C(=O)[C@H](C)[C@@H](O)[C@](C)(O)[C@@H](CC)OC(=O)[C@H](C)[C@@H](O[C@H]2C[C@@](C)(OC)[C@@H](O)[C@H](C)O2)[C@H](C)[C@H]1O[C@@H]1O[C@H](C)C[C@H](N(C)C)[C@H]1O", "MIC / µg/mL": 3.1}
{"compound": "CC[C@H]1OC(=O)[C@H](C)[C@@H](O[C@H]2C[C@@](C)(OC)[C@@H](O)[C@H](C)O2)[C@H](C)[C@@H](O[C@@H]2O[C@H](C)C[C@H](N(C)C)[C@H]2O)[C@](C)(OCC=O)C[C@@H](C)C(=O)[C@H](C)[C@@H](O)[C@]1(C)O", "MIC / µg/mL": 0.78}
{"compound": "CC[C@H]1OC(=O)[C@H](C)[C@@H](O[C@H]2C[C@@](C)(OC)[C@@H](O)[C@H](C)O2)[C@H](C)[C@@H](O[C@@H]2O[C@H](C)C[C@H](N(C)C)[C@H]2O)[C@](C)(O)C[C@@H](C)C(=O)[C@H](C)[C@@H](O)[C@]1(C)O [Ery. A, Erythromycin A, reference compound]", "MIC / µg/mL": 0.2}
{"compound": "CC[C@H]1OC(=O)[C@H](C)[C@@H](O[C@H]2C[C@@](C)(OC)[C@@H](O)[C@H](C)O2)[C@H](C)[C@@H](O[C@@H]2O[C@H](C)C[C@H](N(C)C)[C@H]2O)[C@](C)(OCC(C)=O)C[C@@H](C)C(=O)[C@H](C)[C@@H](O)[C@]1(C)O", "MIC / µg/mL": 3.1}

###

# key: entry, value: MIC
- Test system: Staphylococcus epidermidis 3519

{"compound": "CC[C@H]1OC(=O)[C@H](C)[C@@H](O[C@H]2C[C@@](C)(OC)[C@@H](O)[C@H](C)O2)[C@H](C)[C@@H](O[C@@H]2O[C@H](C)C[C@H](N(C)C)[C@H]2O)[C@](C)(OCC(C)=O)C[C@@H](C)C(=O)[C@H](C)[C@@H](O)[C@]1(C)O", "u": "µg/mL", "MIC": 3.1}
{"compound": "CC[C@H]1OC(=O)[C@H](C)[C@@H](O[C@H]2C[C@@](C)(OC)[C@@H](O)[C@H](C)O2)[C@H](C)[C@@H](O[C@@H]2O[C@H](C)C[C@H](N(C)C)[C@H]2O)[C@](C)(OCC(O)Cn2ccnc2)C[C@@H](C)C(=O)[C@H](C)[C@@H](O)[C@]1(C)O (stereo partly shown)", "u": "µg/mL", "MIC": 1.56}
{"compound": "CC[C@H]1OC(=O)[C@H](C)[C@@H](O[C@H]2C[C@@](C)(OC)[C@@H](O)[C@H](C)O2)[C@H](C)[C@@H](O[C@@H]2O[C@H](C)C[C@H](N(C)C)[C@H]2O)[C@](C)(OCC(O)CN2CCOCC2)C[C@@H](C)C(=O)[C@H](C)[C@@H](O)[C@]1(C)O (stereo partly shown)", "u": "µg/mL", "MIC": 0.78}
{"compound": "CC[C@H]1OC(=O)[C@H](C)[C@@H](O[C@H]2C[C@@](C)(OC)[C@@H](O)[C@H](C)O2)[C@H](C)[C@@H](O[C@@H]2O[C@H](C)C[C@H](N(C)C)[C@H]2O)[C@](C)(OCC(O)CN=[N+]=[N-])C[C@@H](C)C(=O)[C@H](C)[C@@H](O)[C@]1(C)O (stereo partly shown)", "u": "µg/mL", "MIC": 0.78}

###

- Tested on: Pseudomonas capacia 2961
- assay_method_text: In vitro assay of antibacterial activity (agar dilution MIC)
- Assay type: cell-based
- measurement_parameters: BHI agar, 35-37 °C, 20 to 24 hours, in µg/mL (unit assumed)

{"compound": "CC[C@H]1OC(=O)[C@H](C)[C@@H](O[C@H]2C[C@@](C)(OC)[C@@H](O)[C@H](C)O2)[C@H](C)[C@@H](O[C@@H]2O[C@H](C)C[C@H](N(C)C)[C@H]2O)[C@](C)(OCC(O)Cn2ccnc2)C[C@@H](C)C(=O)[C@H](C)[C@@H](O)[C@]1(C)O (stereo partly shown)", "measurement_target": "Pseudomonas capacia 2961", "MIC": "> 100"}
{"compound": "CC[C@H]1OC(=O)[C@H](C)[C@@H](O[C@H]2C[C@@](C)(OC)[C@@H](O)[C@H](C)O2)[C@H](C)[C@@H](O[C@@H]2O[C@H](C)C[C@H](N(C)C)[C@H]2O)[C@](C)(OCC(O)CN=[N+]=[N-])C[C@@H](C)C(=O)[C@H](C)[C@@H](O)[C@]1(C)O (stereo partly shown)", "measurement_target": "Pseudomonas capacia 2961", "MIC": "> 100"}
{"compound": "CC[C@H]1OC(=O)[C@H](C)[C@@H](O[C@H]2C[C@@](C)(OC)[C@@H](O)[C@H](C)O2)[C@H](C)[C@@H](O[C@@H]2O[C@H](C)C[C@H](N(C)C)[C@H]2O)[C@](C)(OCC(O)CO)C[C@@H](C)C(=O)[C@H](C)[C@@H](O)[C@]1(C)O (stereo partly shown)", "measurement_target": "Pseudomonas capacia 2961", "MIC": ">100"}
{"compound": "CC[C@H]1OC(=O)[C@H](C)[C@@H](O[C@H]2C[C@@](C)(OC)[C@@H](O)[C@H](C)O2)[C@H](C)[C@@H](O[C@@H]2O[C@H](C)C[C@H](N(C)C)[C@H]2O)[C@](C)(OCC=O)C[C@@H](C)C(=O)[C@H](C)[C@@H](O)[C@]1(C)O", "measurement_target": "Pseudomonas capacia 2961", "MIC": "> 100"}

###

Target or system Actinetobacter calcoaceticus CMX 669; recorded quantity MIC.

{"molecule": "CC[C@H]1OC(=O)[C@H](C)[C@@H](O[C@H]2C[C@@](C)(OC)[C@@H](O)[C@H](C)O2)[C@H](C)[C@@H](O[C@@H]2O[C@H](C)C[C@H](N(C)C)[C@H]2O)[C@](C)(OCC(O)CN2CCOCC2)C[C@@H](C)C(=O)[C@H](C)[C@@H](O)[C@]1(C)O (stereo partly shown)", "MIC": "25 µg/mL"}
{"molecule": "CC[C@H]1OC(=O)[C@H](C)[C@@H](O[C@H]2C[C@@](C)(OC)[C@@H](O)[C@H](C)O2)[C@H](C)[C@@H](O[C@@H]2O[C@H](C)C[C@H](N(C)C)[C@H]2O)[C@](C)(OCC(O)CO)C[C@@H](C)C(=O)[C@H](C)[C@@H](O)[C@]1(C)O (stereo partly shown)", "MIC": "12.5 µg/mL"}
{"molecule": "CC[C@H]1OC(=O)[C@H](C)[C@@H](O[C@H]2C[C@@](C)(OC)[C@@H](O)[C@H](C)O2)[C@H](C)[C@@H](O[C@@H]2O[C@H](C)C[C@H](N(C)C)[C@H]2O)[C@](C)(OCC(O)Cn2ccnc2)C[C@@H](C)C(=O)[C@H](C)[C@@H](O)[C@]1(C)O (stereo partly shown)", "MIC": "12.5 µg/mL"}
{"molecule": "CC[C@H]1OC(=O)[C@H](C)[C@@H](O[C@H]2C[C@@](C)(OC)[C@@H](O)[C@H](C)O2)[C@H](C)[C@@H](O[C@@H]2O[C@H](C)C[C@H](N(C)C)[C@H]2O)[C@](C)(OCC(O)CN=[N+]=[N-])C[C@@H](C)C(=O)[C@H](C)[C@@H](O)[C@]1(C)O (stereo partly shown)", "MIC": "25 µg/mL"}
{"molecule": "CC[C@H]1OC(=O)[C@H](C)[C@@H](O[C@H]2C[C@@](C)(OC)[C@@H](O)[C@H](C)O2)[C@H](C)[C@@H](O[C@@H]2O[C@H](C)C[C@H](N(C)C)[C@H]2O)[C@](C)(OCC(C)=O)C[C@@H](C)C(=O)[C@H](C)[C@@H](O)[C@]1(C)O", "MIC": "50 µg/mL"}
{"molecule": "CC[C@H]1OC(=O)[C@H](C)[C@@H](O[C@H]2C[C@@](C)(OC)[C@@H](O)[C@H](C)O2)[C@H](C)[C@@H](O[C@@H]2O[C@H](C)C[C@H](N(C)C)[C@H]2O)[C@](C)(OCC=NO)C[C@@H](C)C(=O)[C@H](C)[C@@H](O)[C@]1(C)O", "MIC": "12.5 µg/mL"}
{"molecule": "C#CCO[C@]1(C)C[C@@H](C)C(=O)[C@H](C)[C@@H](O)[C@](C)(O)[C@@H](CC)OC(=O)[C@H](C)[C@@H](O[C@H]2C[C@@](C)(OC)[C@@H](O)[C@H](C)O2)[C@H](C)[C@H]1O[C@@H]1O[C@H](C)C[C@H](N(C)C)[C@H]1O", "MIC": "12.5 µg/mL"}
{"molecule": "CCCO[C@]1(C)C[C@@H](C)C(=O)[C@H](C)[C@@H](O)[C@](C)(O)[C@@H](CC)OC(=O)[C@H](C)[C@@H](O[C@H]2C[C@@](C)(OC)[C@@H](O)[C@H](C)O2)[C@H](C)[C@H]1O[C@@H]1O[C@H](C)C[C@H](N(C)C)[C@H]1O", "MIC": "> 100 µg/mL"}
{"molecule": "CC[C@H]1OC(=O)[C@H](C)[C@@H](O[C@H]2C[C@@](C)(OC)[C@@H](O)[C@H](C)O2)[C@H](C)[C@@H](O[C@@H]2O[C@H](C)C[C@H](N(C)C)[C@H]2O)[C@](C)(OCC=O)C[C@@H](C)C(=O)[C@H](C)[C@@H](O)[C@]1(C)O", "MIC": "50 µg/mL"}
{"molecule": "CC[C@H]1OC(=O)[C@H](C)[C@@H](O[C@H]2C[C@@](C)(OC)[C@@H](O)[C@H](C)O2)[C@H](C)[C@@H](O[C@@H]2O[C@H](C)C[C@H](N(C)C)[C@H]2O)[C@](C)(OCC(O)CNCc2ccccc2)C[C@@H](C)C(=O)[C@H](C)[C@@H](O)[C@]1(C)O (stereo partly shown)", "MIC": "12.5 µg/mL"}
